Data origin, for the record: the Kinase Knowledgebase extract (Sharma et al. 2016)

# TESTED ON: MAPK14 (human) (UniProt Q16539)
# Sequence (Q16539 whole entry, looked up): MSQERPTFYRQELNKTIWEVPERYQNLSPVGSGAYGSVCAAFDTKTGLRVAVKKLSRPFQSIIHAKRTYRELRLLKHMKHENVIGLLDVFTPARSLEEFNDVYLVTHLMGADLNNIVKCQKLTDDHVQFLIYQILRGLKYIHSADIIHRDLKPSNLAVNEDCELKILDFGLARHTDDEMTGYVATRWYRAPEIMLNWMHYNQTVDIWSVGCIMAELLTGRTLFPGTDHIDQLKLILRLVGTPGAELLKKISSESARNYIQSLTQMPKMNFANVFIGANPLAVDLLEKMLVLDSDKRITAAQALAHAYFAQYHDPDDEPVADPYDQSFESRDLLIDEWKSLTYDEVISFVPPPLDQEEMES
# EXPERIMENT: Inhibition of LPS Stimulated TNF Production by U937 Cells
pIC50: −log10 of the molar value.
Mark criterion met for reported pIC50 of 6 or greater; mark criterion not met for anything smaller.

Here are 2 compounds together with their reported answers.
Cn1cc(-c2ccnc(F)c2)c(-c2ccc(F)cc2)n1    criterion met
O=C(NCCCc1[nH]nc(-c2ccc(F)cc2)c1-c1ccncc1)NCCCn1ccnc1    criterion not met

Prompt: Tell me whether pIC50 is at least 6 here: "OCCn1cc(-c2ccnc(CCc3ccc(F)cc3)c2)c(-c2ccc(F)cc2)n1"
Response: criterion met

Prompt: Let us now turn to "COc1ccc(CC(=O)N[C@H](Cc2ccccc2)c2[nH]nc(-c3ccc(F)cc3)c2-c2ccncc2)cc1OC"
Response: criterion not met

Prompt: // repeat for "CC(C)(C)c1ccc(S(=O)(=O)NCc2[nH]nc(-c3ccc(F)cc3)c2-c2ccncc2)cc1" and report
Response: criterion not met

Prompt: Query "C#CCn1ncc(-c2ccncc2)c1-c1ccc(F)cc1" next
Response: criterion not met

Prompt: Now the compound "Fc1ccc(-c2n[nH]cc2-c2ccnc(-c3c[nH]nc3-c3ccc(F)cc3)c2)cc1"
Response: criterion met

Prompt: Queued: "CNC(=O)N[C@H](Cc1ccccc1)c1[nH]nc(-c2ccc(F)cc2)c1-c1ccncc1"
Response: criterion not met

Prompt: What do we get for "Cc1c(-c2ccncc2)c(-c2ccc(F)cc2)nn1CC(=O)N(C)CCn1ccnc1" ?
Response: criterion not met

Prompt: Now consider "COc1ccc(CC(=O)N[C@H](Cc2ccccc2)c2[nH]nc(-c3ccc(F)cc3)c2-c2ccncc2)cc1" .
Response: criterion not met

Prompt: "CNC(=O)CC[C@H](NC(=O)c1ccccc1OC)c1[nH]nc(-c2ccc(F)cc2)c1-c1ccncc1" ?
Response: criterion not met

Prompt: // same read-out, input: "C=CCOC(=O)NCCCc1[nH]nc(-c2ccc(F)cc2)c1-c1ccncc1"
Response: criterion met

* * *

# TESTED ON: MAPK14 (human)
# EXPERIMENT: Inhibition of MAPK14 Kinase Activity by PHAS-I Assay
# REPORTED CONDITIONS: concentration not given here
PROPERTY: inhibition (%)
Report the figure in % without appending any unit label.

Here is how some compounds turned out for inhibition.
COc1ccccc1C(=O)NCCCc1[nH]nc(-c2ccc(F)cc2)c1-c1ccncc1    68
CCN(CC)CC(C)NC(=O)Cn1nc(-c2ccc(F)cc2)c(-c2ccncc2)c1C (stereo not given)    46
O=C(NCCc1[nH]nc(-c2ccc(F)cc2)c1-c1ccncc1)c1ccc(F)c(F)c1F    69
C=CCOC(=O)NCCCc1[nH]nc(-c2ccc(F)cc2)c1-c1ccncc1    79

Next item in the queue.
Prompt: Tell me the measured inhibition of CCOC(=O)CC(C)NC(=O)Cn1nc(-c2ccc(F)cc2)c(-c2ccncc2)c1C (stereo not given) , please.
Response: 43

* * *

# TESTED ON: MAPK14 (human)
# EXPERIMENT: Inhibition of LPS Stimulated TNF Production by U937 Cells
Classify: label 1 when IC50 is strictly less than 300 nM; label 0 when IC50 is not.

Consider the worked cases shown below.
C=CCOC(=O)N[C@H](C)c1[nH]nc(-c2ccc(F)cc2)c1-c1ccncc1    label 0
C[C@@H](NS(C)(=O)=O)c1[nH]nc(-c2ccc(F)cc2)c1-c1ccncc1    label 0
Clc1ccc(-c2n[nH]cc2-c2ccncc2)cc1Cl    label 1
O=C(NCCc1[nH]nc(-c2ccc(F)cc2)c1-c1ccncc1)Nc1ccc(F)cc1    label 0
CN(C)CCn1cc(-c2ccncc2)c(-c2ccc(F)cc2)n1    label 1

Prompt: Hello, is IC50 of the following compound strictly smaller than 300 nM? "OCCn1cc(-c2ccnc(/C=C/c3ccc(F)cc3)c2)c(-c2ccc(F)cc2)n1"
Response: label 0

Prompt: Then what about the compound "O=C(Nc1ccccc1F)N1CCC(c2[nH]nc(-c3ccc(F)cc3)c2-c2ccncc2)CC1" ?
Response: label 1

Prompt: // next record "C[C@@H](NS(=O)(=O)Cc1ccccc1)c1[nH]nc(-c2ccc(F)cc2)c1-c1ccncc1"
Response: label 1

Prompt: Quick one: "CCN(CC)CCn1cc(-c2ccnc(F)c2)c(-c2ccc(F)cc2)n1"
Response: label 0

Prompt: Record: "CC(C)S(=O)(=O)NCc1[nH]nc(-c2ccc(F)cc2)c1-c1ccncc1"
Response: label 0

* * *

# TESTED ON: MAPK14 (human) (UniProt Q16539)
# EXPERIMENT: Inhibition of MAPK14 Kinase Activity by PHAS-I Assay
# REPORTED CONDITIONS: concentration not given here
Recorded measurements of inhibition, one per entry

Prompt: Item: "Cc1cc(C)c(NC(=O)NCCc2[nH]nc(-c3ccc(F)cc3)c2-c2ccncc2)c(C)c1" Test system: MAPK14 (human) (UniProt Q16539) Read-out: inhibition Value: ?
Response: 57%

Prompt: Moving on to the next compound: "CCCC(CCC)NC(=O)Cn1nc(-c2ccc(F)cc2)c(-c2ccncc2)c1C"
Response: 77%

Prompt: // query: "COc1ccc(S(=O)(=O)NCCCc2[nH]nc(-c3ccc(F)cc3)c2-c2ccncc2)cc1OC"
Response: 74%

Prompt: Next record, please: "Cc1cccc(C)c1NC(=O)Cn1nc(-c2ccc(F)cc2)c(-c2ccncc2)c1C"
Response: 83%

Prompt: Same thing, different compound: "CCCCCCCOc1ccc(NC(=O)Cn2nc(-c3ccc(F)cc3)c(-c3ccncc3)c2C)cc1"
Response: 89%

Prompt: Now the same for "CCCS(=O)(=O)NCCc1[nH]nc(-c2ccc(F)cc2)c1-c1ccncc1"
Response: 82%

Prompt: Another: "O=S(=O)(NCc1[nH]nc(-c2ccc(F)cc2)c1-c1ccncc1)c1cccc2cccnc12"
Response: 73%

Prompt: // query: "O=C(NCc1[nH]nc(-c2ccc(F)cc2)c1-c1ccncc1)c1ccc(OC(F)(F)F)cc1"
Response: 69%

Prompt: Try "C[C@H](NC(=O)NCCCc1[nH]nc(-c2ccc(F)cc2)c1-c1ccncc1)c1ccccc1" next.
Response: 85%

Prompt: Check "Cc1c(-c2ccncc2)c(-c2ccc(F)cc2)nn1CC(=O)[C@H]1CCCN1C(=O)OCc1ccccc1" too.
Response: 79%

Prompt: Repeat with "Cc1c(-c2ccncc2)c(-c2ccc(F)cc2)nn1CC(=O)Nc1ccccc1C(C)C"
Response: 94%

* * *

# TESTED ON: UniProt:Q16539
# EXPERIMENT: Inhibition of MAPK14 Kinase Activity by PHAS-I Assay
# REPORTED CONDITIONS: concentration not given here
Record label 1 whenever inhibition is at 80% or higher; record label 0 when lower.

Prompt: Determine whether this compound has inhibition no lower than 80%: "CC(C)=CC(=O)NCCCc1[nH]nc(-c2ccc(F)cc2)c1-c1ccncc1"
Response: label 0

* * *

# TESTED ON: MAPK14 (human)
# EXPERIMENT: Inhibition of LPS Stimulated TNF Production by U937 Cells
# REPORTED CONDITIONS: concentration not given here
We'd kindly ask you to apply these inhibition classes: bucket 1: < 20%; bucket 2: ≥ 20% and < 50%; bucket 3: ≥ 50%

Prompt: Please let me know in which category the item "C[C@@H](NC(=O)c1cc(F)cc(C(F)(F)F)c1)c1[nH]nc(-c2ccc(F)cc2)c1-c1ccncc1" belongs.
Response: bucket 3

Prompt: Lookup "COc1cccc(CC(=O)N[C@H](C)c2[nH]nc(-c3ccc(F)cc3)c2-c2ccncc2)c1"
Response: bucket 1

Prompt: Next molecule: "O=C(NCc1[nH]nc(-c2ccc(F)cc2)c1-c1ccncc1)c1ccccc1Cl"
Response: bucket 3

Prompt: Entry to check: "C[C@@H](NC(=O)c1ccccc1Br)c1[nH]nc(-c2ccc(F)cc2)c1-c1ccncc1"
Response: bucket 3

Prompt: Another molecule to look at: "O=S(=O)(NCCc1[nH]nc(-c2ccc(F)cc2)c1-c1ccncc1)c1cccc(Cl)c1Cl"
Response: bucket 2

Prompt: Same question for "C=CCNC(=O)N[C@H](C)c1[nH]nc(-c2ccc(F)cc2)c1-c1ccncc1" please.
Response: bucket 2

Prompt: Queued: "O=C(NCc1[nH]nc(-c2ccc(F)cc2)c1-c1ccncc1)c1c(F)cccc1F"
Response: bucket 2

* * *

# TESTED ON: MAPK14 (human)
# EXPERIMENT: Inhibition of LPS Stimulated TNF Production by U937 Cells
# REPORTED CONDITIONS: concentration not given here
Would you mind classing the entries by inhibition? Ranges: lowest = under 20%, middle = from 20% up to 50%, highest = 50% and over

Use the examples below as a reference point.
CC(C)c1ccc(NC(=O)NCCc2[nH]nc(-c3ccc(F)cc3)c2-c2ccncc2)cc1    lowest
CCc1ccccc1NC(=O)NCc1[nH]nc(-c2ccc(F)cc2)c1-c1ccncc1    middle
C[C@H](NS(=O)(=O)c1ccccc1Br)c1[nH]nc(-c2ccc(F)cc2)c1-c1ccncc1    highest
C[C@H](NC(=O)c1cc(Cl)cc(Cl)c1)c1[nH]nc(-c2ccc(F)cc2)c1-c1ccncc1    lowest
CC(C)NC(=O)NCCc1[nH]nc(-c2ccc(F)cc2)c1-c1ccncc1    highest
CCOC(=O)C(C)NC(=O)NCCc1[nH]nc(-c2ccc(F)cc2)c1-c1ccncc1 (configuration not stated)    middle

Prompt: Just checking, what class would you give "O=[N+]([O-])c1cc(S(=O)(=O)NCc2[nH]nc(-c3ccc(F)cc3)c2-c2ccncc2)ccc1Cl" here?
Response: lowest

Prompt: Please give the result for "O=S(=O)(/C=C/c1ccccc1)NCCc1[nH]nc(-c2ccc(F)cc2)c1-c1ccncc1" too.
Response: lowest
